System: CCRF-CEM
Assay: NCI tumour cell line growth inhibition, 48 h
The source made the active and inactive calls. Rule as the data show it: active = GI50 up to about 1.1 µM and inactive = higher.
Collected GI50 values appear next to each entry.

CC(C)(C)Sc1nnc(SC(C)(C)C)c2c(SC(C)(C)C)nnc(O)c12
7.5 µM (inactive)

Task: // Input: CC(=O)OCC1OC(n2c(-c3ccc(Cl)cc3)ccc(C#N)c2=S)C(OC(C)=O)C(OC(C)=O)C1OC(C)=O (stereo not given) . Output its GI50 only.
Result: > 100 µM (inactive)

Task: For Cn1c(=O)c2c(nc(C[N+]3([O-])CCOCC3)n2C)n(C)c1=O , write its GI50.
Result: > 100 µM (inactive)

Task: Supply GI50 value. Item: COc1ccc(C(=O)/C=C/c2ccc(OCCSCCCCCCCCCCSCCOc3ccc(/C=C/C(=O)c4ccc(OC)c(OC)c4)cc3)cc2)cc1OC
Result: > 100 µM (inactive)

Task: Indicate its recorded GI50; the molecule in question is O=[N+]([O-])c1cnc(N(CCO)CCO)s1
Result: 79.6 µM (inactive)

* * *

Test system: NCI-H23
Experiment: NCI tumour cell line growth inhibition, 48 h
Active and inactive are the calls of the source. No stated cut-off is given here; in the data, active = GI50 up to about 1.1 µM and inactive = higher. Starred links: 1 amine or outer side, 2 acyl side, 3 side chain; linkers in the order of their positions; H or OH if unused. Positions of bridges follow the written chain, without caps; N, C: chain ends. Non-standard residues stand in square brackets, D forms with d. Residues, ends and D or L forms follow the SMILES beside them. Chains are numbered I, II in the order given. Actinocin(9to1) = Cc1c2oc3c(C)ccc(C(=O)[*:1])c3nc-2c(C(=O)[*:2])c(N)c1=O; NMeV = CN[CH](C(=O)O)C(C)C; Sar = CNCC(=O)O
Return exactly one item of True for active, False for inactive

// below: answered compounds
CC(C)N(C(=O)C12C3C4C1C1C2C3C41C(=O)N(C(C)C)C(C)C)C(C)C (configuration not stated)
False
COc1cc([N+](=O)[O-])ccc1NC1=CC(=O)CCC1
False
CC[P+](C)(Cc1ccccc1)c1ccccc1 (configuration not stated)
False

Task: Please state the recorded outcome for this compound: COc1cc(Nc2n[nH]c(NS(=O)(=O)c3cc(C)c(Cl)cc3S)n2)cc(OC)c1OC
Result: False

Task: # lookup: test call for O=c1[nH]nc(Cc2ccccc2)n1O
Result: False

Task: Would you mind telling me which call this test gave C[C@]12CC[C@@H]3c4ccc(OCC(=O)O)cc4CC[C@H]3[C@@H]1CCC2=O ?
Result: False

Task: Hi, do you know how Cc1c2oc3c(C)ccc(C(=O)NC4C(=O)NC(Cc5ccc(O)cc5)C(=O)N5CCCC5C(=O)N(C)CC(=O)N(C)C(C(C)C)C(=O)OC4C)c3nc-2c(C(=O)NC2C(=O)NC(Cc3ccc(O)cc3)C(=O)N3CCCC3C(=O)N(C)CC(=O)N(C)C(C(C)C)C(=O)OC2C)c(N)c1=O (configuration not stated) (I: TYP[Sar][NMeV] / II: TYP[Sar][NMeV]; ester I:1-I:C, II:1-II:C; linker I:N-II:N via Actinocin(9to1); configuration not given here) came out in this test?
Result: True

Task: For this compound, state the assay outcome: CCCCC(C)/C=C/C(O)=C1\C(=O)O/C(=C\C(=O)O)C1=O (configuration not stated)
Result: False

Task: Record request — test call for COC(=O)CCC(NC(=S)N/N=C(\C)c1cccs1)C(=O)OC (configuration not stated)
Result: False

Task: Assay result, entry Sc1nc2c(c(-c3nc(S)nc4c3CCCCCCCCCC4)n1)CCCCCCCCCC2 — outcome?
Result: False

Task: Any idea what this test logged for COc1cc2c(cc1OCCCC(=O)Nc1cc(C(=O)Nc3cc(C(=O)Nc4cc(C(=O)NCCCN(C)C)n(C)n4)n(C)c3)n(C)c1)N=CC1CCCN1C2=O (configuration not stated) ?
Result: False

Task: Give the logged outcome of this assay for the following compound: COc1cc2c(c(OC)c1)[C@H](C)N(Cc1ccccc1)C(C)C2 (some centres not stated)
Result: False

Task: Short answer needed: outcome of this test for Cn1c(=O)c2c(ncn2Cc2ccc(O)c([N+](=O)[O-])c2)n(C)c1=O ?
Result: False

Task: Which result was noted for this compound in the test: CC(=O)c1cccc(C)c1C(=O)O
Result: False

Task: Hey, what did the test say about CCOC(=O)c1nc2cc(C(F)(F)F)ccc2nc1Nc1ccc(F)cc1 ?
Result: False

Task: Outcome? O=C1CC(Sc2nc3ccc(I)cc3c(=O)n2Cc2ccccc2)C(=O)NN1 (configuration not stated)
Result: False

Task: For C/C(=N/NC(=S)N1CCCC1)c1cccc(/C(C)=N\NC(=S)N2CCCC2)n1 , what call appears in the results of this test?
Result: False

* * *

System: SK-MEL-28
Test: NCI tumour cell line growth inhibition, 48 h
The source made the active and inactive calls. Cut-off read from the data, not from the text of the source: active = GI50 up to about 1.1 µM and inactive = higher.
RESULT_TYPE: GI50

O=C1/C(=C/c2ccco2)NC(=S)N1CN1CCCCC1
> 100 µM (inactive)
CCOC(=O)Cn1c(=O)c2nc(SC)sc2n(-c2ccccc2)c1=S
96.6 µM (inactive)
Cc1cc(C)c(O)c(Cc2cccc(Cc3cc(C)cc(C)c3O)c2O)c1
> 100 µM (inactive)
COc1cc2ccc(C(=O)O)cc2cc1OC
> 100 µM (inactive)
O=C(CC/C(CC(=O)c1ccc(Cl)cc1)=N\O)Nc1cccc(Cl)c1
> 100 µM (inactive)

We next turn to a different compound, shown below.
Task: Fill in GI50 for record COC(=O)C(=O)C(C(=O)C(=O)Nc1cccc(OC)c1)c1nc2ccc(Cl)cc2nc1O (stereo unspecified)
Result: > 100 µM (inactive)

* * *

Test system: TK-10
Test: NCI tumour cell line growth inhibition, 48 h
Activity calls are given as the source filed them. Cut-off read from the data, not from the text of the source: active = GI50 up to about 1.1 µM and inactive = higher.
Hi! Could you answer with just one of these? active, inactive

COc1cc2ccccc2c2cc([N+](=O)[O-])oc12
active

Task: What did the test return for Oc1cccc(C2SCc3nc4ccccc4n32)c1 (configuration not stated) ?
Result: inactive

Task: Could you check what this test reported for CCC1(c2ccc(OC)c(OC)c2)CCN2C(=O)C(O)CC21 (configuration not stated) ?
Result: inactive

Task: Which outcome was entered for the compound O=C1C(Cl)=C(Cl)C(=O)N1c1cccc(C(F)(F)F)c1 in this test?
Result: inactive

Task: Hello, I am checking results. What call was entered for CCc1nc2cc3cccnc3c(Cl)c2[nH]c1=O ?
Result: inactive

Task: Any idea what this test logged for O=C(/C=C\c1ccccc1-c1ccccc1)c1ccccc1 ?
Result: inactive

Task: // outcome(item) with item = O=c1c2ccccc2nc(-c2ccccc2Cl)n1NCC1(O)OCC(O)C(O)C1O (configuration not stated)
Result: inactive

Task: # lookup: test call for O=C1CC(Sc2nc3ccc(I)cc3c(=O)n2Cc2ccccc2)C(=O)NN1 (configuration not stated)
Result: inactive

Task: GET /call?item= COCC(C)(C)/N=C/N1Cc2cc3ccccc3nc2C1 returns the recorded outcome of this test.
Result: inactive

Task: Kindly provide the recorded test outcome for the following compound: c1csc(-c2sc(-c3ccsc3)cc2Cc2ccsc2)c1
Result: inactive

Task: Please let me know the test result on file for CCC1=C(CC)C1(C#N)[N+](=O)[O-] .
Result: inactive

Task: Hi team, can someone confirm the assay call for c1cc2c(s1)-c1sccc1C21OCCO1 ?
Result: inactive

* * *

Tested on: 786-0
Assay: NCI tumour cell line growth inhibition, 48 h
Activity calls are given as the source filed them. Cut-off read from the data, not from the text of the source: active = GI50 up to about 1.1 µM and inactive = higher.
The categories you may choose from are true (active), false (inactive)

A selection of reference data follows.
O=C(/C=C1\Nc2ccc([N+](=O)[O-])cc2N=C1NC12CC3CC(CC(C3)C1)C2)c1ccccc1
false
COc1c(C(=O)/C(=N/Nc2cccc(Cl)c2)C(C)=O)c(O)c(OC)c2occc12
false
Cc1nc2ccccc2c(=O)n1/N=C(\N=N\c1ccccc1Cl)c1ccccc1Cl
false
CC1=C2C=CC(=O)C[C@@]2(C)CCC1
false
CCCCCCCCCCCCCCCCCC(=O)OCC(COC1OC(CS(=O)(=O)O)C(O)C(O)C1O)OC(=O)CCCCCCCCCCCCCCCCC (configuration not stated)
false

Task: // outcome(item) with item = O=c1c(O)c(-c2ccc(O)c(O)c2)oc2cc(O)ccc12 [FISETIN]
Result: false

Task: Look up the recorded call for O=C(NO)C(=O)Nc1ccc(Cl)cc1[N+](=O)[O-] in this test.
Result: false

Task: Could you check what this test reported for CCCN1CN(C(C(=O)N[C@@H]2C(=O)N3C(C(=O)O)=C(C)CSC23)c2ccccc2)CSC1=S (some centres not stated) ?
Result: false

Task: Which outcome was assigned to O=C(Nc1ccc(Cl)cc1)c1cc(S(=O)(=O)Nc2n[nH]c(=O)[nH]2)c(SSc2cc(Cl)c(C(=O)Nc3ccc(Cl)cc3)cc2S(=O)(=O)Nc2n[nH]c(=O)[nH]2)cc1Cl in this test?
Result: false

Task: // outcome(item) with item = Cn1c(=O)n(C2(C)C[Se]C2)c2ccccc21
Result: false

Task: Short answer needed: outcome of this test for CSC(=S)Nc1cc(C)ccn1 ?
Result: false

Measured values drawn from ChEMBL document CHEMBL1201862 for this set.
